# Study system: UniProt Q72874
# Protocol details: Inhibition of HIV-1 protease
Parameter: EC50 (µM)

[[record]]
structure_notation = "Cc1cc(SC2=C(O)C[C@@](CCc3ccc(N)cc3)(C(C)C)OC2=O)c(C(C)(C)C)cc1CO"
units = "µM"
meas_value = 0.2


====

# Protocol details: Binding affinity to HIV protease assessed as inhibition constant
# Set-up: species or system Human immunodeficiency virus
Output True for records whose Ki is lower than 2000 nM, False for records at or above 2000 nM.

[[record]]
compound = "CCC(c1cccc(NC(=O)CCCNC(=O)OC(C)(C)C)c1)c1c(O)c2ccccc2oc1=O (stereo not given)"
answer_label = "True"

[[record]]
compound = "CCC(c1cccc(NC(=O)CNC(=O)OC(C)(C)C)c1)c1c(O)c2ccccc2oc1=O (stereo not given)"
answer_label = "True"

[[record]]
compound = "CCC(c1cccc(NC(=O)[C@H](C)NC(=O)OC(C)(C)C)c1)c1c(O)c2ccccc2oc1=O (stereo not given in full)"
answer_label = "True"

[[record]]
compound = "CCCC(=O)Nc1cccc(C(c2c(O)c3c(oc2=O)CCCCCC3)C2CC2)c1 (stereo not given)"
answer_label = "True"

[[record]]
compound = "CCC(c1cccc(NC(=O)[C@@H]2CCCN2C(=O)OC(C)(C)C)c1)c1c(O)c2ccccc2oc1=O (stereo not given in full)"
answer_label = "False"


====

# Protocol details: Therapeutic index, ratio of IC50 for cytotoxicity against human H9 cells to EC50 for antiviral activity against HIV infected in H9 cells
# Type: toxicity, cell-based
# Test settings: read-out: Ratio IC50/EC50
Parameter: selectivity ratio

[[record]]
structure_notation = "CC(C)=CCOc1c2occc2cc2ccc(=O)oc12"
parameter = "selectivity ratio"
meas_value = "> 1000"


====

# Protocol details: Inhibition of HIV1 integrase
# Design: species or system Human immunodeficiency virus 1
pIC50: −log10 of the molar value.
Parameter: pIC50

[[record]]
structure_notation = "COc1ccc(-c2c3c4cc(OC)c(OS(=O)(=O)O)cc4oc(=O)c3n3ccc4cc(OC)c(OC)cc4c23)cc1O"
meas_value = 4.80


====

Reported log10 Ki is given for each of the following molecules.
# Protocol details: Binding affinity to HIV protease assessed as inhibition constant
# Design: species or system Human immunodeficiency virus
Parameter: log10 Ki (log10 of the value in nM)

[[record]]
molecule = "CCC(c1ccccc1)c1c(O)c2ccccc2oc1=O (stereo not drawn)"
parameter = "log10 Ki"
meas_value = 3.00

[[record]]
molecule = "CCNC(=O)Nc1cccc(C(c2c(O)c3c(oc2=O)CCCCCC3)C2CC2)c1 (stereo not drawn)"
parameter = "log10 Ki"
meas_value = 1.86

[[record]]
molecule = "CCC(c1ccccc1)c1c(O)c2c(oc1=O)CCC2 (stereo not drawn)"
parameter = "log10 Ki"
meas_value = 2.85

[[record]]
molecule = "CC(C)(C)OC(=O)NC(Cc1c[nH]cn1)C(=O)Nc1cccc(C(c2c(O)c3c(oc2=O)CCCCCC3)C2CC2)c1 (stereo not drawn)"
parameter = "log10 Ki"
meas_value = 0.48

[[record]]
molecule = "O=c1oc2c(c(O)c1C(c1ccccc1)C1CC1)CCCCCC2 (stereo not drawn)"
parameter = "log10 Ki"
meas_value = 1.18

[[record]]
molecule = "CCC(c1cccc(NC(=O)CCn2ccc3ccccc32)c1)c1c(O)c2ccccc2oc1=O (stereo not drawn)"
parameter = "log10 Ki"
meas_value = 2.04

[[record]]
molecule = "CCC(c1cccc(NC(=O)CCNC(=O)OC(C)(C)C)c1)c1c(O)c2ccccc2oc1=O (stereo not drawn)"
parameter = "log10 Ki"
meas_value = 2.45

[[record]]
molecule = "N#Cc1ccc(S(=O)(=O)Nc2cccc(C(c3c(O)c4c(oc3=O)CCCCCC4)C3CC3)c2)cc1 (stereo not drawn)"
parameter = "log10 Ki"
meas_value = -0.10


====

Reported pEC50 is given for each of the following compounds.
# Tested on: Hepatitis C virus
# Protocol details: Antiviral activity against HCV assessed as inhibition of RNA replication
# Format: functional, organism-based, Hepacivirus hominis
pEC50: −log10 of the molar value.
Parameter: pEC50

[[record]]
structure_notation = "CC(=O)OC[C@H]1O[C@@H](n2c(SCc3cc4cc(Br)ccc4oc3=O)nc3ccccc32)[C@H](OC(C)=O)[C@@H](OC(C)=O)[C@@H]1OC(C)=O"
meas_value = 5.39

[[record]]
structure_notation = "O=c1oc2ccc(Br)cc2cc1CSc1nc2cc(F)ccc2[nH]1"
meas_value = 5.47


====

# Protocol details: Inhibition of HIV protease
# Design: species or system Human immunodeficiency virus
pIC50: −log10 of the molar value.
Parameter: pIC50

[[record]]
molecule = "O=c1oc2c(c(O)c1C(c1ccccc1)C1CC1)CCCCCC2 (configuration not stated)"
meas_value = 4.24

[[record]]
molecule = "CC(=O)CC(c1ccccc1)c1c(O)c2ccccc2oc1=O (configuration not stated) [WARFARIN]"
meas_value = 4.52


====

# Tested on: Chikungunya virus
# Protocol details: Antiviral activity against CHIKV virus by CHIKV-Rluc assay
# Assay type: functional, organism-based
pIC50: −log10 of the molar value.
Parameter: pIC50

[[record]]
structure_notation = "CCN(CC)c1ccc2cc(-c3nc4ccccc4n3C)c(=O)oc2c1"
study_system = "Chikungunya virus"
parameter = "pIC50"
meas_value = 5.19


====

# Protocol details: Selectivity index, ratio of CC50 for cytotoxicity against human Ava5 cells to EC50 for antiviral activity against HCV
# Format: toxicity, cell-based
# Test settings: read-out: Ratio CC50/EC50
Parameter: selectivity ratio

[[record]]
structure_notation = "COc1cc(NCc2cc3ccccc3oc2=O)cc(OC)c1OC"
parameter = "selectivity ratio"
meas_value = 10

